System: rodent lifetime carcinogenesis bioassay, tumor incidence TD50
Experiment: carcinogenic potency in animals, long-term in vivo studies, CPDB compilation (AID 1745844)
Settings: rat; strain Fischer 344; females; by gavage; site: Zymbal's gland; lesion: carcinoma; dosed 37 weeks; study length 60 weeks
experimental_endpoint: TD50 (mg/kg/day)
# value in mg/kg/day; strip the unit string

Input: Please give measured TD50 of the following entry: "NC(=O)N(CCO)N=O"
Output: 3.15

---

Test system: rodent lifetime carcinogenesis bioassay, tumor incidence TD50
Assay: carcinogenic potency in animals, long-term in vivo studies, CPDB compilation (AID 1745844)
Conditions: rat; strain Sprague-Dawley; males; by gavage; site: nasal cavity; lesion: esthesioneuroepithelioma; dosed 104 weeks; study length 123 weeks
experimental_endpoint: TD50 (mg/kg/day)
Note: unit mg/kg/day is implicit; provide only the numeric part.

INSERT INTO results (smi, target_entity, output_unit, assay_result) VALUES
  ('CCc1ccccc1', 'rodent lifetime carcinogenesis bioassay, tumor incidence TD50', 'mg/kg/day', 5990);

Continue with the next compound.
Input: Input "Cc1ccc(C)c(C)c1" , output reported TD50.
Output: 18300

---

Tested on: rodent lifetime carcinogenesis bioassay, tumor incidence TD50
Assay: carcinogenic potency in animals, long-term in vivo studies, CPDB compilation (AID 1745844)
Conditions: mouse; strain B6C3F1; females; by gavage; site: ovary; lesion: tubular adenoma; dosed 70 weeks; study length 83 weeks
experimental_endpoint: TD50 (mg/kg/day)
Kindly provide the numeric value in mg/kg/day only, without the unit symbol.

Input: Please indicate recorded TD50 of "CC(C)CCC[C@@H](C)[C@H]1CC[C@H]2[C@@H]3CC=C4C[C@@H](OC(=O)Cc5ccc(N(CCCl)CCCl)cc5)CC[C@]4(C)[C@H]3CC[C@]12C" measured with rodent lifetime carcinogenesis bioassay, tumor incidence TD50.
Output: 0.912

---

Tested on: rodent lifetime carcinogenesis bioassay, tumor incidence TD50
Assay: carcinogenic potency in animals, long-term in vivo studies, CPDB compilation (AID 1745844)
Settings: mouse; strain B6C3F1; females; inhaled; site: uterus; lesion: adenocarcinoma, NOS + adenoma, NOS + squamous-cell carcinoma; dosed 103 weeks; study length 105 weeks
experimental_endpoint: TD50

Input: Name the recorded TD50 of the item "CCBr" in your answer.
Output: 535 mg/kg/day

---

Test system: rodent lifetime carcinogenesis bioassay, tumor incidence TD50
Assay: carcinogenic potency in animals, long-term in vivo studies, CPDB compilation (AID 1745844)
Conditions: mouse; strain B6C3F1; males; inhaled; site: forestomach; lesion: squamous-cell papilloma; dosed 82 weeks; study length 104 weeks
experimental_endpoint: TD50 (mg/kg/day)
Numeric only. Scale: mg/kg/day

Input: Give reported TD50 for "C=CC=C" (rodent lifetime carcinogenesis bioassay, tumor incidence TD50)
Output: 230

---

System: rodent lifetime carcinogenesis bioassay, tumor incidence TD50
Assay: carcinogenic potency in animals, long-term in vivo studies, CPDB compilation (AID 1745844)
Conditions: rat; strain Fischer 344; males; in feed; site: multiple organs; lesion: granulocytic leukemia; dosed 110 weeks; study length 111 weeks
experimental_endpoint: TD50

Input: For "Nc1ncc([N+](=O)[O-])s1" , write its TD50.
Output: 90.2 mg/kg/day

---

System: rodent lifetime carcinogenesis bioassay, tumor incidence TD50
Assay: carcinogenic potency in animals, long-term in vivo studies, CPDB compilation (AID 1745844)
Conditions: mouse; strain CF-1; females; in feed; site: liver; lesion: several types; types named in the paper; dosed 90 weeks; study length 90 weeks
experimental_endpoint: TD50

Input: Using known records, supply TD50 for "ClC1=C(Cl)[C@]2(Cl)[C@@H]3[C@@H]4C[C@@H]([C@H]5O[C@@H]45)[C@@H]3[C@@]1(Cl)C2(Cl)Cl"
Output: 1.05 mg/kg/day
